Target: Sodium-dependent noradrenaline transporter (Homo sapiens)
Sequence (P23975 whole entry): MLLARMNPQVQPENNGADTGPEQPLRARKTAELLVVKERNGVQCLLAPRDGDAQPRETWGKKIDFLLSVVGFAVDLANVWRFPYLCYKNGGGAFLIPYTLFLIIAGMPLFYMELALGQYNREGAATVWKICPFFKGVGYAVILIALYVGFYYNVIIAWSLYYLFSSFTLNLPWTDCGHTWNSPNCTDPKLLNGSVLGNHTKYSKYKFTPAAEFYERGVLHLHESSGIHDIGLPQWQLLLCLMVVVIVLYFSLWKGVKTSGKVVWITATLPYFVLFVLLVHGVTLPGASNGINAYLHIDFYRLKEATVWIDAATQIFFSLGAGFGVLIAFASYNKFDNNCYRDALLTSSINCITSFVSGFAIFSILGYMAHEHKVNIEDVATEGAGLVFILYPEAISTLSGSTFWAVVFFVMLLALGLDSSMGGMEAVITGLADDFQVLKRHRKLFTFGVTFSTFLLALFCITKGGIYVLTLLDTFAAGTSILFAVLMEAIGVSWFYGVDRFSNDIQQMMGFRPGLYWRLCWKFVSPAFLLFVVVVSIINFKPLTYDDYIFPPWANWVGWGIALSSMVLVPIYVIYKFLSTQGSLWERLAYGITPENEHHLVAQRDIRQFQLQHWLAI
Assay: Enhancing of [125I]RTI-55 binding to recombinant human NET expressed in HEK293 cell membranes preincubated for 10 mins followed by radioligand addition measured after 90 mins by micro beta scintillation counting analysis
Settings: read-out: EC50
Decision: EC50 beneath 700 nM gives Condition met; EC50 meeting or exceeding 700 nM gives Condition not met.

Completed entries (count: 5):
compound_structure=CNC(=O)[C@@]12C[C@@H]1[C@@H](n1cnc3c(NC)nc(C#Cc4ccc(Br)s4)nc31)[C@H](O)[C@@H]2O assigned_class="Condition met"
compound_structure=CNc1nc(C#Cc2ccc(Br)s2)nc2c1ncn2[C@H]1[C@H](O)[C@H](O)[C@]2(C(=O)OC)C[C@H]12 assigned_class="Condition met"
compound_structure=CCCOC(=O)[C@@]12C[C@@H]1[C@@H](n1cnc3c(NC)nc(C#Cc4ccc(Cl)s4)nc31)[C@H](O)[C@@H]2O assigned_class="Condition not met"
compound_structure=CNc1nc(C#Cc2ccc(Cl)s2)nc2c1ncn2[C@H]1[C@H](O)[C@H](O)[C@]2(C(=O)OC)C[C@H]12 assigned_class="Condition met"
compound_structure=CNc1nc(C#Cc2ccc(Cl)s2)nc2c1ncn2[C@@H]1O[C@H](C(=O)OC)[C@@H](O)[C@H]1O assigned_class="Condition not met"

### Prompt Lab note: confirm whether the reported EC50 for this compound is below 700 nM, equality not counting. compound: CCOC(=O)[C@@]12C[C@@H]1[C@@H](n1cnc3c(NC)nc(C#Cc4ccc(Cl)s4)nc31)[C@H](O)[C@@H]2O
### Response Condition met

### Prompt Then what about the compound CNC(=O)[C@@]12C[C@@H]1[C@@H](n1cnc3c(NC)nc(C#Cc4ccc(Cl)s4)nc31)[C@H](O)[C@@H]2O ?
### Response Condition not met

### Prompt Then what about the compound CCCNc1nc(C#Cc2ccc(Cl)s2)nc2c1ncn2[C@H]1[C@H](O)[C@H](O)[C@]2(C(=O)NC)C[C@H]12 ?
### Response Condition not met

### Prompt Then what about the compound CNC(=O)[C@@]12C[C@@H]1[C@@H](n1cnc3c(NC)nc(C#Cc4ccc(Cl)s4)cc31)[C@H](O)[C@@H]2O ?
### Response Condition not met

----------
Biological target: Sodium-dependent dopamine transporter (Homo sapiens)
Experiment: Enhancing of [125I]RTI-55 binding to recombinant human DAT expressed in HEK293 cell membranes preincubated for 10 mins followed by radioligand addition measured after 90 mins by micro beta scintillation counting analysis
Set-up: concentration or dose not given beside the values
readout kind: Activity (%)
Respond with the bare value in %.

Below, 4 compounds whose answers are already recorded.
compound_structure=CNC(=O)[C@@]12C[C@@H]1[C@@H](n1cnc3c(NC)nc(C#Cc4ccc(F)c(F)c4)nc31)[C@H](O)[C@@H]2O system_name="Sodium-dependent dopamine transporter (Homo sapiens)" recorded_result=690
compound_structure=CNc1nc(C#Cc2ccc(Cl)s2)nc2c1ncn2[C@H]1[C@H](O)[C@H](O)[C@]2(C(=O)OC)C[C@H]12 system_name="Sodium-dependent dopamine transporter (Homo sapiens)" recorded_result=458
compound_structure=CCCNc1nc(C#Cc2ccc(Cl)s2)nc2c1ncn2[C@H]1[C@H](O)[C@H](O)[C@]2(C(=O)NC)C[C@H]12 system_name="Sodium-dependent dopamine transporter (Homo sapiens)" recorded_result=268
compound_structure=CNC(=O)[C@@]12C[C@@H]1[C@@H](n1cnc3c(NC)nc(C#Cc4ccc(Cl)s4)nc31)[C@H](O)[C@@H]2O system_name="Sodium-dependent dopamine transporter (Homo sapiens)" recorded_result=550

### Prompt Entry under review: CNC(=O)[C@@]12C[C@@H]1[C@@H](n1cnc3c(NC)nc(C#Cc4ccc(Br)s4)nc31)[C@H](O)[C@@H]2O . Reported Activity?
### Response 217

### Prompt Then what about the compound CNc1nc(C#Cc2ccc(Br)s2)nc2c1ncn2[C@H]1[C@H](O)[C@H](O)[C@]2(C(=O)OC)C[C@H]12 ?
### Response 374

### Prompt Then what about the compound CNC(=O)[C@@]12C[C@@H]1[C@@H](n1cnc3c(NC)nc(C#Cc4ccc(Cl)s4)cc31)[C@H](O)[C@@H]2O ?
### Response 437

### Prompt Then what about the compound CCCOC(=O)[C@@]12C[C@@H]1[C@@H](n1cnc3c(NC)nc(C#Cc4ccc(Cl)s4)nc31)[C@H](O)[C@@H]2O ?
### Response 461

### Prompt Then what about the compound CNc1nc(C#Cc2ccc(Cl)s2)nc2c1ncn2[C@@H]1O[C@H](C(=O)OC)[C@@H](O)[C@H]1O ?
### Response 312

### Prompt Then what about the compound CCOC(=O)[C@@]12C[C@@H]1[C@@H](n1cnc3c(NC)nc(C#Cc4ccc(Cl)s4)nc31)[C@H](O)[C@@H]2O ?
### Response 434

----------
Target: Sodium-dependent dopamine transporter (Mus musculus) (UniProt Q61327)
Sequence (Q61327 whole entry): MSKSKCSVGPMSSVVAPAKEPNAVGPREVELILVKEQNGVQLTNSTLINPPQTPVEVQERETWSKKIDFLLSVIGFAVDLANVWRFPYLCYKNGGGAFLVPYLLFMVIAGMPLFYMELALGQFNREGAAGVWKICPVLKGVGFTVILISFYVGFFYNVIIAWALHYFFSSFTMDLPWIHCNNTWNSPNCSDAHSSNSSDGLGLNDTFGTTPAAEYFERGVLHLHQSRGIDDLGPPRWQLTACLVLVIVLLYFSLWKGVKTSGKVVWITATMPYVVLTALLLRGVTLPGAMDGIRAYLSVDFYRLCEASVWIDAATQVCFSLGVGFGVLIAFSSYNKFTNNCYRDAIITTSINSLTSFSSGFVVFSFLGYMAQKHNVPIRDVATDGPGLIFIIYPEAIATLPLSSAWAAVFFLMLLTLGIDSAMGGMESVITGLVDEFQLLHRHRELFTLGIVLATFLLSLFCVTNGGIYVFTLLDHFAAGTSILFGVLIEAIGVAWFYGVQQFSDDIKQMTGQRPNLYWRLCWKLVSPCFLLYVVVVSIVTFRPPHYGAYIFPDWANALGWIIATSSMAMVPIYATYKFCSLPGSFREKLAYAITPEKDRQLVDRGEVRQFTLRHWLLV
Assay: Enhancing of [125I]RTI-55 binding to mouse DAT expressed in HEK293 cells preincubated for 10 mins followed by radioligand addition measured after 90 mins by micro beta scintillation counting analysis
Assay type: cell-based
readout kind: Emax (%)
Respond with the bare value in %.

Below, 4 molecules whose answers are already recorded.
compound_structure=CNC(=O)[C@@]12C[C@@H]1[C@@H](n1cnc3c(NC)nc(C#Cc4ccc(Cl)s4)nc31)[C@H](O)[C@@H]2O system_name="Sodium-dependent dopamine transporter (Mus musculus) (UniProt Q61327)" readout_kind=Emax units_symbol=% recorded_result=1150
compound_structure=CNC(=O)[C@@]12C[C@@H]1[C@@H](n1cnc3c(NC)nc(C#Cc4ccc(Br)s4)nc31)[C@H](O)[C@@H]2O system_name="Sodium-dependent dopamine transporter (Mus musculus) (UniProt Q61327)" readout_kind=Emax units_symbol=% recorded_result=810
compound_structure=CNc1nc(C#Cc2ccc(Cl)s2)nc2c1ncn2[C@H]1[C@H](O)[C@H](O)[C@]2(C(=O)OC)C[C@H]12 system_name="Sodium-dependent dopamine transporter (Mus musculus) (UniProt Q61327)" readout_kind=Emax units_symbol=% recorded_result=1440
compound_structure=CNC(=O)[C@@]12C[C@@H]1[C@@H](n1cnc3c(NC)nc(C#Cc4ccc(Cl)s4)cc31)[C@H](O)[C@@H]2O system_name="Sodium-dependent dopamine transporter (Mus musculus) (UniProt Q61327)" readout_kind=Emax units_symbol=% recorded_result=1000

Turning now to a further record.
### Prompt Entry under review: CCOC(=O)[C@@]12C[C@@H]1[C@@H](n1cnc3c(NC)nc(C#Cc4ccc(Cl)s4)nc31)[C@H](O)[C@@H]2O . Reported Emax?
### Response 1560

----------
Entries and their measured IC50 follow.
Molecular target: Sodium-dependent dopamine transporter (Homo sapiens)
Assay: Inhibition of recombinant human DAT expressed in HEK293 cell […] as reduction in [3H]-DA uptake incubated for 22 mins by micro beta scintillation counting analysis
Respond with the bare value in nM.

### Prompt Entry under review: CNc1nc(C#Cc2ccc(Cl)s2)nc2c1ncn2[C@H]1[C@H](O)[C@H](O)[C@]2(C(=O)OC)C[C@H]12 . Reported IC50?
### Response 127

### Prompt Then what about the compound CCOC(=O)[C@@]12C[C@@H]1[C@@H](n1cnc3c(NC)nc(C#Cc4ccc(Cl)s4)nc31)[C@H](O)[C@@H]2O ?
### Response 107

### Prompt Then what about the compound CNC(=O)[C@@]12C[C@@H]1[C@@H](n1cnc3c(NC)nc(C#Cc4ccc(F)c(F)c4)nc31)[C@H](O)[C@@H]2O ?
### Response 92

----------
Entries and their measured pEC50 follow.
Molecular target: Sodium-dependent dopamine transporter (Homo sapiens, UniProt Q01959)
Sequence (Q01959 whole entry): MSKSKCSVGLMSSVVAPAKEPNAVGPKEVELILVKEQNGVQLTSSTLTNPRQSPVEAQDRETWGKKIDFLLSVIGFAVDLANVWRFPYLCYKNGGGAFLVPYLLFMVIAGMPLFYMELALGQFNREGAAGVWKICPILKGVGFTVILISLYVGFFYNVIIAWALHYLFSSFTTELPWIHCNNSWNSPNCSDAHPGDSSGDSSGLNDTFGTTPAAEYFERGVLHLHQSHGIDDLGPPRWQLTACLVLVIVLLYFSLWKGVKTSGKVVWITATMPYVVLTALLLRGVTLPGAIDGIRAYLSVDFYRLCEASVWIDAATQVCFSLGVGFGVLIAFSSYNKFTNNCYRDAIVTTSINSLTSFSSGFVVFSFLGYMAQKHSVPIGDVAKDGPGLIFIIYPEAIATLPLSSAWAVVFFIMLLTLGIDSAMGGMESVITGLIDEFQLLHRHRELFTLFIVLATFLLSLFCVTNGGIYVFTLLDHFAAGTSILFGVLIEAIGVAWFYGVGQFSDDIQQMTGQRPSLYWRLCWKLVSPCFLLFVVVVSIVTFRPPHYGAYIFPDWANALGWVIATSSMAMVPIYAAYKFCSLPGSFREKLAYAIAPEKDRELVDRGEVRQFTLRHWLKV
Test: Enhancing of [125I]RTI-55 binding to recombinant human DAT expressed in HEK293 cell membranes preincubated for 10 mins followed by radioligand addition measured after 90 mins by micro beta scintillation counting analysis
Conditions: read-out: EC50
Hey, just a heads up that pEC50 is the negative log base 10 of the concentration in molar.

Below, 2 compounds whose answers are already recorded.
compound_structure=CNc1nc(C#Cc2ccc(Br)s2)nc2c1ncn2[C@H]1[C@H](O)[C@H](O)[C@]2(C(=O)OC)C[C@H]12 recorded_result=7.27
compound_structure=CNC(=O)[C@@]12C[C@@H]1[C@@H](n1cnc3c(NC)nc(C#Cc4ccc(Cl)s4)cc31)[C@H](O)[C@@H]2O recorded_result=6.62

### Prompt I'm curious: which pEC50 was measured for CCCOC(=O)[C@@]12C[C@@H]1[C@@H](n1cnc3c(NC)nc(C#Cc4ccc(Cl)s4)nc31)[C@H](O)[C@@H]2O tested on Sodium-dependent dopamine transporter (Homo sapiens, UniProt Q01959)?
### Response 6.53

### Prompt Then what about the compound CNc1nc(C#Cc2ccc(Cl)s2)nc2c1ncn2[C@@H]1O[C@H](C(=O)OC)[C@@H](O)[C@H]1O ?
### Response 6.90

### Prompt Then what about the compound CNc1nc(C#Cc2ccc(Cl)s2)nc2c1ncn2[C@H]1[C@H](O)[C@H](O)[C@]2(C(=O)OC)C[C@H]12 ?
### Response 7.46

### Prompt Then what about the compound CNC(=O)[C@@]12C[C@@H]1[C@@H](n1cnc3c(NC)nc(C#Cc4ccc(Br)s4)nc31)[C@H](O)[C@@H]2O ?
### Response 8.04

### Prompt Then what about the compound CNC(=O)[C@@]12C[C@@H]1[C@@H](n1cnc3c(NC)nc(C#Cc4ccc(Cl)s4)nc31)[C@H](O)[C@@H]2O ?
### Response 7.45

Cited source: ChEMBL document CHEMBL4007505
